Where do the numbers come from? From PubChem BioAssay (NCI).

- System: A549/ATCC NSCLC
- Experiment: NCI-60 one-dose screen, 48 h
- Cond: 10 µM unless noted
- Procedure: Growth inhibition of the A549/ATCC human Non-Small Cell Lung tumor cell line is measured as a screen for anti-cancer activity. Cells are grown in 96 well plates and exposed to the test compound for 48 hours. Compounds are tested at a single concentration, which is 10^-5 M for most compounds. The reported endpoint is percent growth (GI% or GIPRCNT), where numbers from 0 - 100% represent growth inhibition, and numbers from -100% - 0 represent cell death. […]
Compounds without any hit were thinned out: in the full panel of roughly 83,000, 20% have a hit. Active and inactive are the calls of the source. How the source made its calls: active means growth percent below 10; inactive means the rest.
Respond using exactly one of the listed classes: active, inactive

Illustrative cases are given below, each with its answer.
COc1ccc(/C=C/C(=O)c2cc3c(N)c(C(=O)Nc4ccccc4C)sc3nc2C)cc1 = inactive
Cn1cc(-c2nonc2-c2c[nH]c3ccccc23)c2ccccc21 = inactive
NC(=O)c1c(NC(=O)c2ccc(Cl)cc2)sc2c1CCC(=O)C2 = inactive
Cc1[nH]c(/C=C/C(=O)c2ccc(C(F)(F)F)c(F)c2)c(C)c1C(=O)NCC(C)C = inactive
O=C1/C(=C/c2ccccc2)CN(C(=O)c2cccnc2)C/C1=C\c1ccccc1 = inactive

Ask: How did this test come out for Cc1ccc(C)c(-n2c(-c3ccc(Br)cc3)csc2=NC(=O)c2ccccc2F)c1 ?
Reply: inactive

Ask: How did this test come out for COc1ccc(-c2nnc(SCC(=O)Nc3ccc(/C(C)=N\O)cc3)n2-c2ccccc2)cc1OC ?
Reply: inactive

Ask: How did this test come out for Cn1cc(-c2csc(-c3cn(C)c4ccc(Br)cc34)n2)c2cnccc21 ?
Reply: active

Ask: How did this test come out for Cn1cccc1/C=C1\C(=O)Nc2ccccc21 ?
Reply: inactive

Ask: How did this test come out for COc1ccc(C2=NN(C(C)=O)C(c3ccc(Oc4ccnc5cc(Cl)ccc45)c(OC)c3)C2)cc1 (stereo not given) ?
Reply: inactive
